biological target: human GPR40 (Homo sapiens); assay: Calcium Flux Primary Assay; conditions: HEK293 cells over expressing human GPR40; FLIPR calcium
Sequence (O14842 whole entry): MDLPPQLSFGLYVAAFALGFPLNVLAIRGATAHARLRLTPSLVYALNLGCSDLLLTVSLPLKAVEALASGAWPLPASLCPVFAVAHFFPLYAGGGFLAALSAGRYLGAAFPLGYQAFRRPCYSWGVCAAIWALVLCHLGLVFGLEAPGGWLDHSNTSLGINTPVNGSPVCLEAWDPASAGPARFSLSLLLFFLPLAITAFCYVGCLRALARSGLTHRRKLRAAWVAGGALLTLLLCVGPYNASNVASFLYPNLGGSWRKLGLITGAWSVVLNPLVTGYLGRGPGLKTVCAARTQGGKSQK
reported-property: EC50
Please state the value followed by its unit.

Give the measured EC50 for CC#C[C@@H](CC(=O)O)c1ccc(OCc2ccc(CN3CCC4(C=Cc5ccccc54)CC3)cc2)cc1 [Example 1]
186 nM
